# experiment_summary: recombinant barcode read abundance after kanamycin selection (control-corrected) (log10(CPM+1)); higher = more efficient recombination; sequences stand for … in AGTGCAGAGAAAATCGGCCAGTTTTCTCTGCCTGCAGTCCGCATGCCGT…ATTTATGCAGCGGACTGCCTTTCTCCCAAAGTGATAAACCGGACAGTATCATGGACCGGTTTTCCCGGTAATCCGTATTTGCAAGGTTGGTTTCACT; site = the 11-nt target
property_label: recombinant barcode read abundance (log10)
Form rule: numeric answer, no unit written next to it.

Known recombinant barcode read abundance (log10) results, listed for orientation:
>  <sequence>
GCGCGACGATGGGTTCTAACCTGTTGCTTAG [GCGCGACCTAA_LTGcore_GA_RTGcore_CT] (site GCGCGACCTAA) (LTG core: GA, RTG core: CT)

>  <quantitative_result>
0.0201

$$$$
>  <sequence>
ATGCTTTTTTGGGTTCTAACCTGTTGCCTAA [ATGCTTTCTAG_LTGcore_TT_RTGcore_TT] (site ATGCTTTCTAG) (LTG core: TT, RTG core: TT)

>  <quantitative_result>
0.0151

$$$$
>  <sequence>
AGTCTTATATGGGTTCTAACCTGTTGCCATA [AGTCTTACTTG_LTGcore_TA_RTGcore_TA] (site AGTCTTACTTG) (LTG core: TA, RTG core: TA)

>  <quantitative_result>
0.153

$$$$
>  <sequence>
CGCGCCCGGTGGGTTCTAACCTGTTGCGGCC [CGCGCCCCTCC_LTGcore_GG_RTGcore_GG] (site CGCGCCCCTCC) (LTG core: GG, RTG core: GG)

>  <quantitative_result>
0.307

$$$$

Data point: GCGGGACTCTGGGTTCTAACCTGTTGCCTAG [GCGGGACCTAG_LTGcore_TC_RTGcore_CT] (site GCGGGACCTAG) (LTG core: TC, RTG core: CT) ; recombinant barcode read abundance (log10) = 0.467

Data point: GTCGCCCCTTGGGTTCTAACCTGTTGCTAGC [GTCGCCCCTTA_LTGcore_CT_RTGcore_GC] (site GTCGCCCCTTA) (LTG core: CT, RTG core: GC) ; recombinant barcode read abundance (log10) = 0.805

Data point: GGGCGGATCTGGGTTCTAACCTGTTGCGGAG [GGGCGGACTCC_LTGcore_TC_RTGcore_CT] (site GGGCGGACTCC) (LTG core: TC, RTG core: CT) ; recombinant barcode read abundance (log10) = 0.798

Data point: GGCTCCCCTTGGGTTCTAACCTGTTGCGGGC [GGCTCCCCTCC_LTGcore_CT_RTGcore_GC] (site GGCTCCCCTCC) (LTG core: CT, RTG core: GC) ; recombinant barcode read abundance (log10) = 0.112

Data point: TGTATTCAATGGGTTCTAACCTGTTGCCTTT [TGTATTCCTAG_LTGcore_AA_RTGcore_AA] (site TGTATTCCTAG) (LTG core: AA, RTG core: AA) ; recombinant barcode read abundance (log10) = 0.0627

Data point: TAGAGGGCTTGGGTTCTAACCTGTTGCGGGA [TAGAGGGCTCC_LTGcore_CT_RTGcore_TC] (site TAGAGGGCTCC) (LTG core: CT, RTG core: TC) ; recombinant barcode read abundance (log10) = 0.378

Data point: GAGGCCTGTTGGGTTCTAACCTGTTGCCAAC [GAGGCCTCTTG_LTGcore_GT_RTGcore_GT] (site GAGGCCTCTTG) (LTG core: GT, RTG core: GT) ; recombinant barcode read abundance (log10) = 0.104

Data point: ACGGGACCTTGGGTTCTAACCTGTTGCAGCT [ACGGGACCTCT_LTGcore_CT_RTGcore_AG] (site ACGGGACCTCT) (LTG core: CT, RTG core: AG) ; recombinant barcode read abundance (log10) = 1.07

Data point: AGGCCTCCTTGGGTTCTAACCTGTTGCCTTA [AGGCCTCCTAG_LTGcore_CT_RTGcore_TA] (site AGGCCTCCTAG) (LTG core: CT, RTG core: TA) ; recombinant barcode read abundance (log10) = 0.635

Data point: AAACATGGATGGGTTCTAACCTGTTGCCTAG [AAACATGCTAG_LTGcore_GA_RTGcore_CT] (site AAACATGCTAG) (LTG core: GA, RTG core: CT) ; recombinant barcode read abundance (log10) = 0.0906

Data point: CGCGCCCCTTGGGTTCTAACCTGTTGCGGAA [CGCGCCCCTCC_LTGcore_CT_RTGcore_TT] (site CGCGCCCCTCC) (LTG core: CT, RTG core: TT) ; recombinant barcode read abundance (log10) = 0.319

Data point: TCTACCCTCTGGGTTCTAACCTGTTGCTGAG [TCTACCCCTCA_LTGcore_TC_RTGcore_CT] (site TCTACCCCTCA) (LTG core: TC, RTG core: CT) ; recombinant barcode read abundance (log10) = 0.0968

Data point: GAGCCCAGATGGGTTCTAACCTGTTGCCTTC [GAGCCCACTAG_LTGcore_GA_RTGcore_GA] (site GAGCCCACTAG) (LTG core: GA, RTG core: GA) ; recombinant barcode read abundance (log10) = 0.057

Data point: GTCGCCCTCTGGGTTCTAACCTGTTGCTAGA [GTCGCCCCTTA_LTGcore_TC_RTGcore_TC] (site GTCGCCCCTTA) (LTG core: TC, RTG core: TC) ; recombinant barcode read abundance (log10) = 0.236

Data point: GAGGCCTTCTGGGTTCTAACCTGTTGCCAGA [GAGGCCTCTTG_LTGcore_TC_RTGcore_TC] (site GAGGCCTCTTG) (LTG core: TC, RTG core: TC) ; recombinant barcode read abundance (log10) = 0.104

Data point: AAACAGTCTTGGGTTCTAACCTGTTGCCTCA [AAACAGTCTAG_LTGcore_CT_RTGcore_TG] (site AAACAGTCTAG) (LTG core: CT, RTG core: TG) ; recombinant barcode read abundance (log10) = 0.601

Data point: GAGCCCACTTGGGTTCTAACCTGTTGCCTCG [GAGCCCACTAG_LTGcore_CT_RTGcore_CG] (site GAGCCCACTAG) (LTG core: CT, RTG core: CG) ; recombinant barcode read abundance (log10) = 0.1

Data point: AGGCGGTGGTGGGTTCTAACCTGTTGCTTAG [AGGCGGTCTAA_LTGcore_GG_RTGcore_CT] (site AGGCGGTCTAA) (LTG core: GG, RTG core: CT) ; recombinant barcode read abundance (log10) = 0.074

----------
Below is a list of entries, each paired with its recorded recombinant barcode read abundance (log10) value.
# experiment_summary: recombinant barcode read abundance after kanamycin selection (control-corrected) (log10(CPM+1)); higher = more efficient recombination; sequences stand for … in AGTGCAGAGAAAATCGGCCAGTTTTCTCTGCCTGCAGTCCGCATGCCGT…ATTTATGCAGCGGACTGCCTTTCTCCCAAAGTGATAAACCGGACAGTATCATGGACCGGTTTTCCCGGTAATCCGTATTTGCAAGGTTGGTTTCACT; site = the 11-nt target

Known recombinant barcode read abundance (log10) results, listed for orientation:
>  <sequence>
AGGCCTCGGTGGGTTCTAACCTGTTGCCTAG [AGGCCTCCTAG_LTGcore_GG_RTGcore_CT] (site AGGCCTCCTAG) (LTG core: GG, RTG core: CT)

>  <result>
1.04

$$$$
>  <sequence>
ATGTCCCGCTGGGTTCTAACCTGTTGCTCAG [ATGTCCCCTGA_LTGcore_GC_RTGcore_CT] (site ATGTCCCCTGA) (LTG core: GC, RTG core: CT)

>  <result>
0

$$$$
>  <sequence>
ATGTCCCCTTGGGTTCTAACCTGTTGCTCCA [ATGTCCCCTGA_LTGcore_CT_RTGcore_TG] (site ATGTCCCCTGA) (LTG core: CT, RTG core: TG)

>  <result>
0.0151

$$$$
>  <sequence>
ATGTCCCGGTGGGTTCTAACCTGTTGCTCCC [ATGTCCCCTGA_LTGcore_GG_RTGcore_GG] (site ATGTCCCCTGA) (LTG core: GG, RTG core: GG)

>  <result>
0.109

$$$$

Continue with the sequence presented below.
Data point: GAGCCCATATGGGTTCTAACCTGTTGCCTAG [GAGCCCACTAG_LTGcore_TA_RTGcore_CT] (site GAGCCCACTAG) (LTG core: TA, RTG core: CT) ; recombinant barcode read abundance (log10) = 0.101

----------
Below is a list of entries, each paired with its recorded recombinant UMI read abundance (log10) value.
# experiment_summary: recombinant UMI read abundance after kanamycin selection (control-corrected) (log10(CPM+1)); higher = more efficient recombination; extreme values may be limits of the assay; sequences stand for … in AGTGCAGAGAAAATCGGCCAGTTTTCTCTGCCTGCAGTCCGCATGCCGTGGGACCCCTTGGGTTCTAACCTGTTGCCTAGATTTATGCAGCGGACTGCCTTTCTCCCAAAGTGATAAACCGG…AGGTTGGTTTCACT; site = the 11-nt donor

>  <sequence>
CTCTAAACATGGACCGGTTTTCCCGGTAATCCGTATTTGCT (site CTCTAAACTAG)

>  <property_label>
recombinant UMI read abundance (log10)

>  <result>
2.06

$$$$
>  <sequence>
CGTTAGTCATGGACCGGTTTTCCCGGTAATCCGTATTTGAG (site CGTTAGACTCT)

>  <property_label>
recombinant UMI read abundance (log10)

>  <result>
0.0321

$$$$
>  <sequence>
ATTGAGACATGGACCGGTTTTCCCGGTAATCCGTATTTGTT (site ATTGAGACTAT)

>  <property_label>
recombinant UMI read abundance (log10)

>  <result>
0.811

$$$$
>  <sequence>
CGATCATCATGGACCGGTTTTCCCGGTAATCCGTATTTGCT (site AGATCAGCTAG)

>  <property_label>
recombinant UMI read abundance (log10)

>  <result>
0.00274

$$$$
>  <sequence>
TCACGAGCATGGACCGGTTTTCCCGGTAATCCGTATTTGCC (site TCACGAGCTGG)

>  <property_label>
recombinant UMI read abundance (log10)

>  <result>
0.952

$$$$

Data point: CTTAAAGCATGGACCGGTTTTCCCGGTAATCCGTATTTGAT (site CATAAAGCTAT) ; recombinant UMI read abundance (log10) = 0

Data point: CGGGAGTCATGGACCGGTTTTCCCGGTAATCCGTATTTGCC (site CGGGAGTCTTG) ; recombinant UMI read abundance (log10) = 2.01

Data point: AAGCTCACATGGACCGGTTTTCCCGGTAATCCGTATTTGAT (site GAGCTCACTAT) ; recombinant UMI read abundance (log10) = 0.291

Data point: GACAAGCCATGGACCGGTTTTCCCGGTAATCCGTATTTGGT (site GACAAGCCTAC) ; recombinant UMI read abundance (log10) = 0
